# tested_on: P97 (Homo sapiens (Human), UniProt P55072)
# Sequence (P55072 whole entry): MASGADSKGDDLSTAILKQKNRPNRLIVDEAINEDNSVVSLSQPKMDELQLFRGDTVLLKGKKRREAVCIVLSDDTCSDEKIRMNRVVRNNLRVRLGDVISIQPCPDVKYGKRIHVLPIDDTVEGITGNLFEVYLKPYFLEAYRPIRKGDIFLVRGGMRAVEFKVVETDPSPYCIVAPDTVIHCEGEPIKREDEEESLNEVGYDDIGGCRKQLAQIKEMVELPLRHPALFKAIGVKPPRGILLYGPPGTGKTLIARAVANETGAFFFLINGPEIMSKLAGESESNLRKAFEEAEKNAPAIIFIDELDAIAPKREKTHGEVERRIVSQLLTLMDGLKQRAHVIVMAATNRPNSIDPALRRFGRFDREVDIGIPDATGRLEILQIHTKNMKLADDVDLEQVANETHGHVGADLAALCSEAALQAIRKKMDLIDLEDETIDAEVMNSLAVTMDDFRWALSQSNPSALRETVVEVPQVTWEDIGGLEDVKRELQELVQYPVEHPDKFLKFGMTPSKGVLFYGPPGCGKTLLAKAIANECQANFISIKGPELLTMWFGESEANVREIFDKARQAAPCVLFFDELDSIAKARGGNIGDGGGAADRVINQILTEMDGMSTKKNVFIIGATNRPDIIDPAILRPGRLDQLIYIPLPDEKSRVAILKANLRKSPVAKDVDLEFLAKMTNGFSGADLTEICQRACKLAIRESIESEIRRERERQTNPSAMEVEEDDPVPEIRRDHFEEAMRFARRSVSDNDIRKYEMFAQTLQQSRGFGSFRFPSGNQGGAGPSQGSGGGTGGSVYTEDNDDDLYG
# method_notes: P97 Biomolgreen ATPase assay, 200 μM ATP
# Type: biochemical
# condition_info: read-out: P97 Biomolgreen, IC50
pIC50: −log10 of the molar value.
Record Yes whenever pIC50 is at 7 or higher; record No when lower.

INSERT INTO assay_data (compound, tested_on, category) VALUES
  ('CC(=O)NCC#Cc1ccc(OCc2nnc(SC3C=CCCC3)n2-c2cccnc2)cc1C (stereo not shown)', 'P97 (Homo sapiens (Human), UniProt P55072)', 'Yes'),
  ('Cc1cc(OCc2nnc(SC3C=CCCC3)n2-c2cccnc2)ccc1C#CCN (stereo not shown)', 'P97 (Homo sapiens (Human), UniProt P55072)', 'Yes'),
  ('Cc1cc(OCc2nnc(SC3C=CCCC3)n2-c2cccnc2)ccc1C#CCOC(=O)NCC1(N2CCN(C(C)C)CC2)CCC1 (stereo not shown)', 'P97 (Homo sapiens (Human), UniProt P55072)', 'Yes'),
  ('Cc1cc(OCc2nnc(SC3C=CCCC3)n2-c2cccnc2)ccc1C#CCN1C(=O)c2ccccc2C1=O (stereo not shown)', 'P97 (Homo sapiens (Human), UniProt P55072)', 'No'),
  ('C#Cc1ccc(OCc2nnc(CC3CCCC3)n2-c2cccnc2)cc1C', 'P97 (Homo sapiens (Human), UniProt P55072)', 'No'),
  ('Cc1cc(OCc2nnc(SC3CCCC3)n2-c2cccnc2)ccc1C#CCNS(C)(=O)=O', 'P97 (Homo sapiens (Human), UniProt P55072)', 'Yes'),
  ('Cc1cc(OCc2nnc(SC3C=CCCC3)n2-c2cccnc2)ccc1C#CCNCCN(C)C (stereo not shown)', 'P97 (Homo sapiens (Human), UniProt P55072)', 'Yes'),
  ('CCC(=O)NCC#Cc1ccc(OCc2nnc(SCC(=O)CCl)n2-c2cccnc2)cc1C', 'P97 (Homo sapiens (Human), UniProt P55072)', 'No'),
  ('Cc1cc(OCc2nnc(SC3C=CCCC3)n2-c2cccnc2)ccc1C#CC1(O)CN(C(=O)OC(C)(C)C)C1 (stereo not shown)', 'P97 (Homo sapiens (Human), UniProt P55072)', 'No'),
  ('Cc1cc(OCc2nnc(SC3CCCC3)n2-c2cccnc2)ccc1C#CCNC(=O)OC(C)(C)C', 'P97 (Homo sapiens (Human), UniProt P55072)', 'Yes'),
  ('Cc1cc(OCc2nnc(SC3CCCC3)n2-c2cccnc2)ccc1C#CCNC(C)C', 'P97 (Homo sapiens (Human), UniProt P55072)', 'Yes'),
  ('C/C=C/C(=O)NCC#Cc1ccc(OCc2nnc(SC3C=CCCC3)n2-c2cccnc2)cc1C (stereo not shown)', 'P97 (Homo sapiens (Human), UniProt P55072)', 'Yes'),
  ('CN1CCN(CCNC(=O)OCC#Cc2ccc(OCc3nnc(SC4C=CCCC4)n3-c3cccnc3)cc2F)CC1 (stereo not shown) [Compound 77]', 'P97 (Homo sapiens (Human), UniProt P55072)', 'Yes');

The reported numbers originate from patent US10894782B2.
